target: Albumin (Bos taurus); assay: bovine serum albumin binders on microarray, profiling panel, artefact control for SMM control protein annotation, biochemical, small-molecule microarray, Alexa647 label, 635/667 nm fluorescence (AID 1118); conditions: BSA-A647 binding, fluorescence 635 nm, higher = more signal;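 also: score merges 667 nm emission intensity and signal-to-noise per printed compound spot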
Catalogue of composite z-score readings, one per entry.

compound: C=C[C@H](CO[Si](CC)(CC)CC)N(Cc1ccc(OC(C)=O)c(OC)c1)S(=O)(=O)c1ccc(Br)cc1
composite z-score: 0.848
--
compound: C=C(COC)/C(=C/C[C@@H](OC(C)=O)c1ccc(OCCO)cc1)c1cnc2ccccc2c1
composite z-score: 0.0772
--
compound: CC(C)C(O)C1C=CC2C(=O)N(c3ccccc3)C(=O)C2N1Nc1ccc([N+](=O)[O-])cc1 (stereo not given)
composite z-score: 0.963
--
compound: CNS(=O)(=O)c1ccc(C)cc1
composite z-score: -0.189
--
compound: [N-]=[N+]=NCc1ccccc1[C@@H]1OC(c2ccc(OCCCO)cc2)=N[C@]1(Cc1ccccc1)C(=O)NCC(O)CO (stereo not given in full)
composite z-score: 1.05
